biological target: UniProt:P00750; test: tPA inhibition assay with chromogenic substrate S-2288 (Dixon plot, Cornish-Bowden plot); type: biochemical; settings: tPA
Sequence (P00750 36-562): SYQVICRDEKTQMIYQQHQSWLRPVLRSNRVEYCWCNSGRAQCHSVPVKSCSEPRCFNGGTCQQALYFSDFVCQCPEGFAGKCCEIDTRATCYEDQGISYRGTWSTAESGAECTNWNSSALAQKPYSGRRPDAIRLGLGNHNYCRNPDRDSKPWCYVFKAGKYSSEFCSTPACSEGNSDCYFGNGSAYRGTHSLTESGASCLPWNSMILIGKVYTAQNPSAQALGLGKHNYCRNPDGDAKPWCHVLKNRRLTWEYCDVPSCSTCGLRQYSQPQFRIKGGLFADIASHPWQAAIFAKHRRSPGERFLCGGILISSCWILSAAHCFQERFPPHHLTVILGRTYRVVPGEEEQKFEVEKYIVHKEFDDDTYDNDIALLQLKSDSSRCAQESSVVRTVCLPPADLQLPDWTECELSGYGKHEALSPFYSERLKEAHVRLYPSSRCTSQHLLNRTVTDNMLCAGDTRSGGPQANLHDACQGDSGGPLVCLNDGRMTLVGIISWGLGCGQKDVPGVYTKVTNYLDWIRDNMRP
measured.parameter: Mode of inhibition (Cornish-Bowden S/Vo vs I plot)

compound: N=C(N)c1ccccc1 [Benzamidine, reference compound]
experimental.result: competitive inhibitor
//
compound: N=C(N)c1ccc(CN)cc1 [4-aminomethyl benzamidine, reference compound]
experimental.result: competitive inhibitor

----------
molecular target: human thrombin (Homo sapiens); assay: Thrombin inhibition assay with fluorogenic Thrombin Substrate III (Dixon plot, Cornish-Bowden plot); assay type: biochemical; settings: thrombin
measured.parameter: Mode of inhibition (Cornish-Bowden S/Vo vs I plot)

compound: N=C(N)c1ccc(N)cc1 [4-amino benzamidine, reference compound]
experimental.result: competitive inhibitor

compound: N=C(N)c1ccc(CNC(=O)CCOCCOCCOCCOCCOCCOCCOCCOCCNC(=O)[C@H]2CC[C@H](CN)CC2)cc1
experimental.result: competitive inhibitor

compound: N=C(N)c1ccc(CNC(=O)CN(CC(=O)NCc2ccc(C(=N)N)cc2)CC(=O)NCc2ccc(C(=N)N)cc2)cc1
experimental.result: competitive inhibitor

compound: N=C(N)c1ccccc1 [Benzamidine, reference compound]
experimental.result: competitive inhibitor
